# assaySystem: ACK1 (Homo sapiens)
# testDescription: 32P Hotspot assay (Reaction Biology), ACK1 IC50
# Type: biochemical
# conditionLabel: Table 2; read-out: IC50 (32P Hotspot assay)
endpoint: IC50 (nM)

# molecule, assaySystem, endpoint, unitAbbrev, obsValue
measured = [
    ("O=C(Nc1c(F)cccc1Cl)c1cnc(Nc2ccc(N3CCC(C(=O)O)CC3)cc2)nc1NCC1CCCO1 (stereo not shown)", "ACK1 (Homo sapiens)", "IC50", "nM", 34.2),
    ("O=C(Nc1c(F)cccc1Cl)c1cnc(Nc2ccc(N3CCOCC3)cc2)nc1NCC1CCCO1 (stereo not shown)", "ACK1 (Homo sapiens)", "IC50", "nM", 47.7),
    ("Clc1cnc(Nc2ccc(N3CCOCC3)cc2)nc1NCC1CCCO1 (stereo not shown)", "ACK1 (Homo sapiens)", "IC50", "nM", 67.5),
    ("Brc1cnc(Nc2ccc(C3CCNCC3)cc2)nc1NCC1CCCO1 (stereo not shown)", "ACK1 (Homo sapiens)", "IC50", "nM", 169),
]

###

# assaySystem: ACK1 (Homo sapiens, UniProt Q07912)
# Sequence (Q07912 whole entry): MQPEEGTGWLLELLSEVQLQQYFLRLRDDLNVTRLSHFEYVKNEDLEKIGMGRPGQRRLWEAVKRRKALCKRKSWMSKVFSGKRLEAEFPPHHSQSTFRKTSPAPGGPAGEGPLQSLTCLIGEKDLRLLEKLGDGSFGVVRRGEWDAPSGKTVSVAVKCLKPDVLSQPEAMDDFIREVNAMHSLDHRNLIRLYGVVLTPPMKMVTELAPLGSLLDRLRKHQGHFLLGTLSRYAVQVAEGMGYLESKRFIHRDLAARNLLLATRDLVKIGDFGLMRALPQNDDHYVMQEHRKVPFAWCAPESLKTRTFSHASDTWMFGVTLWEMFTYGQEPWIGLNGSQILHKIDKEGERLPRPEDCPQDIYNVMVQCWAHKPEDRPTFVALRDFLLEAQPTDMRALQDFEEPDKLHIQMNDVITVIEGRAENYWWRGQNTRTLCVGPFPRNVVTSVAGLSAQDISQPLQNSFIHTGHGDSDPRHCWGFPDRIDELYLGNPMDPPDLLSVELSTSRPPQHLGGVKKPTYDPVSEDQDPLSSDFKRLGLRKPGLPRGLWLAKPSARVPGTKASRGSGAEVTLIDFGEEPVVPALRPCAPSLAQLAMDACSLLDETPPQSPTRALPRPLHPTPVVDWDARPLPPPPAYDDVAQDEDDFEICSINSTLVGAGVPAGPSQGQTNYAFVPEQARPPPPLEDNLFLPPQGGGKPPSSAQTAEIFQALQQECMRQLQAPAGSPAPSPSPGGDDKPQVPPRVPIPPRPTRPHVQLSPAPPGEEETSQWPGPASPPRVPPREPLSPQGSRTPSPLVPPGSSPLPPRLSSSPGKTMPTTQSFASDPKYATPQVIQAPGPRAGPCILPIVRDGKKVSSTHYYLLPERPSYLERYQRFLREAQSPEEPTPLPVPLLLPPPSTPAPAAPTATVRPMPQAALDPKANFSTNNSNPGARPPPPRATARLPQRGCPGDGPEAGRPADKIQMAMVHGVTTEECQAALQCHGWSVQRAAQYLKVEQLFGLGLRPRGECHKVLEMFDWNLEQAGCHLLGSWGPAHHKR
# testDescription: 32P Hotspot assay (Reaction Biology), ACK1 IC50
# Type: biochemical
# conditionLabel: Table 1, unit inferred; (RB) = Reaction Biology; replicates listed; read-out: IC50
pIC50: −log10 of the molar value.
Item-by-item account of pIC50
endpoint: pIC50

# molecule, obsValue
measured = [
    ("Brc1cnc(Nc2ccc(N3CCOCC3)cc2)nc1NCC1CCCO1.Cl (centres unmarked)", 6.97),
    ("Clc1cnc(Nc2ccc(N3CCOCC3)cc2)nc1NC[C@@H]1CCCO1", 7.13),
    ("Oc1ccc(Nc2ncc(Cl)c(NCC3CCCO3)n2)cc1 (centres unmarked)", 6.79),
    ("CN1CCN(c2ccc(Nc3ncc(Br)c(NCC4CCCO4)n3)cc2)CC1 (centres unmarked)", 7.32),
    ("O=C(O)C1CCN(c2ccc(Nc3ncc(Cl)c(NC[C@H]4CCCO4)n3)cc2)CC1", 7.04),
]

###

Item-by-item account of melting point
endpoint: melting point

# compound, obsValue
records = [
    ("CCS(=O)(=O)c1ccccc1Nc1nc(Nc2ccc(O)cc2)ncc1C(=O)Nc1c(F)cccc1Cl [YL7-058-2]", "201 °C (dec.)"),
    ("COc1ccc(Nc2ncc(C(=O)Nc3c(F)cccc3Cl)c(Nc3ccccc3SC)n2)cc1 [YL7-039-1]", "261 °C (dec.)"),
    ("CC(C)S(=O)(=O)c1ccccc1Nc1nc(Nc2ccc(O)cc2)ncc1C(=O)Nc1c(F)cccc1Cl [YL7-045-2]", "168 °C (dec.)"),
    ("Cc1cnc(Nc2ccc(N3CCN(C)CC3)cc2)nc1NCC1CCCO1 (centres unmarked) [DZ1-100]", "151.7 °C (dec.)"),
    ("CCCSc1ccccc1Nc1nc(Nc2ccc(OC)cc2)ncc1C(=O)Nc1c(F)cccc1Cl [YL7-055-3]", "248 to 249 °C"),
    ("COc1ccc(Nc2ncc(C(=O)Nc3c(F)cccc3Cl)c(Nc3ccccc3SC(C)C)n2)cc1 [YL7-045-3]", "237 to 240 °C"),
    ("Cl.NC(=O)c1ccc(Nc2ncc(Br)c(NCC3CCCO3)n2)cc1 (centres unmarked) [YL7-172-5]", "251 °C (dec.)"),
    ("CCc1cnc(Nc2ccc(N3CCN(C)CC3)cc2)nc1NCC1CCCO1 (centres unmarked) [DZ1-108]", "209.5 °C (dec.)"),
    ("CCCS(=O)(=O)c1ccccc1Nc1nc(Nc2ccc(O)cc2)ncc1C(=O)Nc1c(F)cccc1Cl [YL7-055-2]", "165 °C (dec.)"),
    ("CSc1ccccc1Nc1nc(Cl)ncc1C(=O)Nc1c(F)cccc1Cl [YL7-031B2]", "204 to 206 °C"),
    ("Cl.NS(=O)(=O)c1ccc(Nc2ncc(Br)c(NCC3CCCO3)n2)cc1 (centres unmarked) [YL8-003-3]", "214 °C (dec.)"),
    ("CCCSc1ccccc1Nc1nc(Nc2ccc(O)cc2)ncc1C(=O)Nc1c(F)cccc1Cl [YL7-055-4]", "208 °C (dec.)"),
    ("CC(C)S(=O)(=O)c1ccccc1Nc1nc(Nc2ccc(C(N)=O)cc2)ncc1C(=O)Nc1c(F)cccc1Cl [YL7-106-3]", "230 °C (dec.)"),
    ("CS(=O)(=O)c1ccccc1Nc1nc(Cl)ncc1C(=O)Nc1c(F)cccc1Cl [YL7-034]", "211 to 214 °C"),
    ("CCSc1ccccc1Nc1nc(Nc2ccc(OC)cc2)ncc1C(=O)Nc1c(F)cccc1Cl [YL7-058-3]", "250 °C (dec.)"),
    ("Cc1ccc(Nc2ncc(Br)c(NCC3CCCO3)n2)cc1F.Cl (centres unmarked) [YL7-172-4]", "189 °C (dec.)"),
    ("Cl.Oc1ccc(Nc2nc(NCC3CCCO3)c3ccccc3n2)cc1F (centres unmarked) [YL8-001]", "144 °C (dec.)"),
]
